# key: entry, value: drug sensitivity score
- Test system: S1507-2
- Test Description: drug sensitivity score (DSS, CellTox-Green cytotoxicity, 72 h) (DSS (dimensionless)); higher = more cytotoxic; extreme values may be limits of the assay
Keep it simple and answer with nothing but the number.

Some entries whose results are on file:
# Compound, Test Target, drug sensitivity score
measured = [
    ("CCN(CC)CCCC(C)Nc1c2ccc(Cl)cc2nc2ccc(OC)cc12 (stereo not given) [Mepacrine aq] (max concentration tested 50000 nM)", "S1507-2", 23.5),
    ("COc1cc2c(N3CCN(C(=O)Nc4ccc(OC(C)C)cc4)CC3)ncnc2cc1OCCCN1CCCCC1 [Tandutinib] (max concentration tested 1000 nM)", "S1507-2", 0),
    ("O=C(O)c1ccc(-c2c[nH]c3ncc(-c4ccccc4)cc23)cc1C1CCCC1 (max concentration tested 10000 nM)", "S1507-2", 0.00895),
    ("CO[C@H]1C[C@@H]2CC[C@@H](C)[C@@](O)(O2)C(=O)C(=O)N2CCCC[C@H]2C(=O)O[C@H]([C@H](C)C[C@@H]2CC[C@@H](O)[C@H](OC)C2)CC(=O)[C@H](C)/C=C(\\C)[C@@H](O)[C@@H](OC)C(=O)[C@H](C)C[C@H](C)/C=C/C=C/C=C/1C [Sirolimus] (max concentration tested 100 nM)", "S1507-2", 0.0997),
]

Task: Give its drug sensitivity score value. Item: CCn1c(C(=O)N(C2CC2)C2CC2)cc2c3c(ncn3C)c(Nc3cc(C)n(C)n3)nc21 (max concentration tested 10000 nM)
Result: 0
